- Target system: T1, Cre recombinase monomer with Y324M mutation
- T1 chain: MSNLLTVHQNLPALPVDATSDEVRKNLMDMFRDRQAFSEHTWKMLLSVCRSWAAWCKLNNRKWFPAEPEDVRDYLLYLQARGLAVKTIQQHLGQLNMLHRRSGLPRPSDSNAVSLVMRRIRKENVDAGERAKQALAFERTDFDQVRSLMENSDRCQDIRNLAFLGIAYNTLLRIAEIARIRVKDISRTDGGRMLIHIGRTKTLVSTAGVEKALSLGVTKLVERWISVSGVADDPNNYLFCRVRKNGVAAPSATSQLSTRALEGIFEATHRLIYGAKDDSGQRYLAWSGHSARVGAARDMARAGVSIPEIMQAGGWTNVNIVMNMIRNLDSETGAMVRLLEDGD
Endpoint label: Median dimer activity (recombination on loxP) (%)

[
  {
    "Protein": "Cre recombinase monomer with R292Y mutation (protein) MSNLLTVHQNLPALPVDATSDEVRKNLMDMFRDRQAFSEHTWKMLLSVCRSWAAWCKLNNRKWFPAEPEDVRDYLLYLQARGLAVKTIQQHLGQLNMLHRRSGLPRPSDSNAVSLVMRRIRKENVDAGERAKQALAFERTDFDQVRSLMENSDRCQDIRNLAFLGIAYNTLLRIAEIARIRVKDISRTDGGRMLIHIGRTKTLVSTAGVEKALSLGVTKLVERWISVSGVADDPNNYLFCRVRKNGVAAPSATSQLSTRALEGIFEATHRLIYGAKDDSGQRYLAWSGHSAYVGAARDMARAGVSIPEIMQAGGWTNVNIVMNYIRNLDSETGAMVRLLEDGD",
    "Result unit": "%",
    "Test result": 90
  },
  {
    "Protein": "Cre recombinase monomer with R173N mutation (protein) MSNLLTVHQNLPALPVDATSDEVRKNLMDMFRDRQAFSEHTWKMLLSVCRSWAAWCKLNNRKWFPAEPEDVRDYLLYLQARGLAVKTIQQHLGQLNMLHRRSGLPRPSDSNAVSLVMRRIRKENVDAGERAKQALAFERTDFDQVRSLMENSDRCQDIRNLAFLGIAYNTLLNIAEIARIRVKDISRTDGGRMLIHIGRTKTLVSTAGVEKALSLGVTKLVERWISVSGVADDPNNYLFCRVRKNGVAAPSATSQLSTRALEGIFEATHRLIYGAKDDSGQRYLAWSGHSARVGAARDMARAGVSIPEIMQAGGWTNVNIVMNYIRNLDSETGAMVRLLEDGD",
    "Result unit": "%",
    "Test result": 51
  },
  {
    "Protein": "Cre recombinase monomer with Q311R mutation (protein) MSNLLTVHQNLPALPVDATSDEVRKNLMDMFRDRQAFSEHTWKMLLSVCRSWAAWCKLNNRKWFPAEPEDVRDYLLYLQARGLAVKTIQQHLGQLNMLHRRSGLPRPSDSNAVSLVMRRIRKENVDAGERAKQALAFERTDFDQVRSLMENSDRCQDIRNLAFLGIAYNTLLRIAEIARIRVKDISRTDGGRMLIHIGRTKTLVSTAGVEKALSLGVTKLVERWISVSGVADDPNNYLFCRVRKNGVAAPSATSQLSTRALEGIFEATHRLIYGAKDDSGQRYLAWSGHSARVGAARDMARAGVSIPEIMRAGGWTNVNIVMNYIRNLDSETGAMVRLLEDGD",
    "Result unit": "%",
    "Test result": 96
  }
]
